measured-on: Cytochrome P450 2D6 (Homo sapiens)
Sequence (P10635 whole entry): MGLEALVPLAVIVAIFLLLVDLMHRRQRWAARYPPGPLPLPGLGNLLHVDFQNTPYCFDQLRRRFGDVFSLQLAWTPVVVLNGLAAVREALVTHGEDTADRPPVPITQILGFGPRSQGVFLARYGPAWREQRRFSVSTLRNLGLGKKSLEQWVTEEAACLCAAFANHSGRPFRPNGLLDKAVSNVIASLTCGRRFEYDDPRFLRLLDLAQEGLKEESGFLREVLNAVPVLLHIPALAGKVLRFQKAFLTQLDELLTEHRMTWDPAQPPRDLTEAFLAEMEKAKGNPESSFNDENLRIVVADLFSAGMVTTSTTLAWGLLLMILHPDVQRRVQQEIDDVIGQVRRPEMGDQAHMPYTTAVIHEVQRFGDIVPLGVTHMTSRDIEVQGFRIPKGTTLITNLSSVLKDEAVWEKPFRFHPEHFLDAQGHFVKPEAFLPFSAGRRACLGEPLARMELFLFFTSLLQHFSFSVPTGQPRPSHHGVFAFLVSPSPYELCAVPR
property-label: IC50 (µM)
Output spec: scalar in µM, unitless text.

INPUT: // returns reported IC50 for input O=C(N1C[C@@H]2CN(c3ccccn3)C[C@@H]2C1)C12CC3CC(CC(C3)C1)C2
OUTPUT: 24.3

###

measured-on: Metabotropic glutamate receptor 1 (Homo sapiens)
Sequence (Q13255 whole entry): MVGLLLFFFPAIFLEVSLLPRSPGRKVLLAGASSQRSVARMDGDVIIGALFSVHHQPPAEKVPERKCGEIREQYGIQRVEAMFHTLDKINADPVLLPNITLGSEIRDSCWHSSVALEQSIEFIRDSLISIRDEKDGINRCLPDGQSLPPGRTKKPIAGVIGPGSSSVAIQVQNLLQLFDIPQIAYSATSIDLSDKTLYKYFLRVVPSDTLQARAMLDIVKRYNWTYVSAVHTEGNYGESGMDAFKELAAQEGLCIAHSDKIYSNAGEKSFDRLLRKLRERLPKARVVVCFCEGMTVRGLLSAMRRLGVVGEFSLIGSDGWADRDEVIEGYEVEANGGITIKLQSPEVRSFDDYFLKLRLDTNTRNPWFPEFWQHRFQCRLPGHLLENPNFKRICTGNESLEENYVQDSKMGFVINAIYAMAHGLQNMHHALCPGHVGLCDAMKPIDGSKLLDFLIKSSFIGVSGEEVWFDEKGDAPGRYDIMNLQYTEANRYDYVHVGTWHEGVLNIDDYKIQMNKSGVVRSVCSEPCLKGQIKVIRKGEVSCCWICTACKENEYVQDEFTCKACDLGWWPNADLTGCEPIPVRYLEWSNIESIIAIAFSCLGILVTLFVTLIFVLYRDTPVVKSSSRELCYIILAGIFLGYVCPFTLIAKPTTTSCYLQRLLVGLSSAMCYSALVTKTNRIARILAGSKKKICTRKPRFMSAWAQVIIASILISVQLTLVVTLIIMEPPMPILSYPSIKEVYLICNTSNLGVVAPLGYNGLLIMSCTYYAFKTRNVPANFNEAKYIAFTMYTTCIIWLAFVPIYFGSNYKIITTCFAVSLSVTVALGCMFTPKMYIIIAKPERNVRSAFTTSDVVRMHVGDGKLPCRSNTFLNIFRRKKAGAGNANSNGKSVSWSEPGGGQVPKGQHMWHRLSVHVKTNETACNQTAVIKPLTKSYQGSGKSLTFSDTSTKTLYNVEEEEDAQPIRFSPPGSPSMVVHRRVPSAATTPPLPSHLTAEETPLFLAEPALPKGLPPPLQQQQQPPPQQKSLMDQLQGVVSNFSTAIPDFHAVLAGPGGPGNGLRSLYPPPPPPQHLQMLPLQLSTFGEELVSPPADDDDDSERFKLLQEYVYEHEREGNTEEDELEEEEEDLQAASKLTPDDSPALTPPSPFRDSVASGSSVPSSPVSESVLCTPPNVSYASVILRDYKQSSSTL
experimental-details: Negative allosteric modulation of human mGlu1 receptor expressed in HEK293A TREx cells assessed as calcium flux after 45 mins
Assay type: functional, cell-based, HEK293-A
pIC50: −log10 of the molar value.
pIC50 for assorted compounds

Reference set (2 entries):
>  <chemical-string>
O=C(N1CCCCCCC1)N1C[C@@H]2CN(c3ccccn3)C[C@@H]2C1

>  <measured-on>
Metabotropic glutamate receptor 1 (Homo sapiens)

>  <pIC50>
< 5.00

$$$$
>  <chemical-string>
O=C(N1C[C@@H]2CN(c3nccs3)C[C@@H]2C1)C12CC3CC(CC(C3)C1)C2

>  <measured-on>
Metabotropic glutamate receptor 1 (Homo sapiens)

>  <pIC50>
< 5.00

$$$$

Attention now shifts to the item below.
INPUT: Give the reported pIC50 for O=C(C1CCCCCC1)N1C[C@@H]2CN(c3ccccn3)C[C@@H]2C1 (system: Metabotropic glutamate receptor 1 (Homo sapiens)).
OUTPUT: < 5.00
